Values from PubChem BioAssay (NCI)

System: COLO 205 colon
method.summary: NCI tumour cell line growth inhibition, 48 h

compound	TGI
CCC1=CCC(P(=O)(c2ccccc2)c2ccccc2)CC1C (stereo not given)	> 100 µM
Cc1ccc(/C=C2\CCS(=O)(=O)c3ccccc3C2=O)cc1	30.2 µM
CCCCCCC(O)C(=O)OC1C2C(CC1(C)C)C(O)C13OC1C(O)C1(CO1)[C@@]23C (stereo not given in full)	> 100 µM
O=C(C(=O)c1cccnc1)c1cccnc1	> 100 µM
O=C1/C(=C/c2cccc([N+](=O)[O-])c2)Cc2ccccc21	> 100 µM
CCOC(OCC)[C@@H]1C[C@@H]2N(O[C@H](OC3CCCC3(c3ccccc3)c3ccccc3)[C@H](OC(C)=O)[C@@]2(CC)Cc2ccc(OC)c(OC)c2)O1 (stereo not given in full)	> 100 µM
CN(C)C1(N(C)C)Oc2c(c(=O)n(C)c(=O)n2C)C(c2ccc(F)cc2)C1(F)F (stereo not given)	> 100 µM
Cc1cc(S(=O)(=O)Nc2nnc3c(Cl)cc(C(F)(F)F)cn23)c(S)cc1Cl	> 100 µM
O=C1NC(NNc2ccccc2)=N/C1=C\c1ccco1	25.1 µM
COc1cc2cnc3c4cc(O)ccc4ccc3c2cc1OC	59.8 µM
